# PROTOCOL_TEXT: Cmax in CD-1 disease model mouse plasma at 30 mg/kg, po measured after 24 hrs
# Assay type: ADME, organism-based
# COND: CD-1, mouse
RECORDED_METRIC: Cmax (µM)
Reply with just the number (in µM).

Q: Any idea what Cmax was measured for Cc1cc2c(-c3ccc(NC(=O)[C@H](N)CC(C)(C)C)cc3C)ccnc2[nH]1 ?
Result: 12.9

###

# PROTOCOL_TEXT: Cmax in Sprague-Dawley rat at 10 mg/kg, po measured upto 24 hrs
# Format: ADME, organism-based
# COND: in vivo
RECORDED_METRIC: Cmax (µM)
Reply with just the number (in µM).

Q: Any idea what Cmax was measured for Cc1cc2c(-c3ccc(NC(=O)[C@H](N)CC(C)(C)C)cc3C)ccnc2[nH]1 ?
Result: 12.3
